test system: intestinal alkaline phosphatase [Mus musculus]; test: mouse intestinal phosphatase enzyme activation – biochemical, luminescence, single concentration, confirmation (AID 434970); details: purified mouse IAP, CDP-Star luminescence, 30 min, at 10 µM; stronger effect = lower value
Out of some 11,000 compounds screened, about 310 (2.8%) were called active. The full list was thinned out, with actives kept by preference.
Rule for this label: fulfilled means activity change, negative = activation is less than -80%; not fulfilled means activity change, negative = activation is at least -80%.

Study these solved cases before continuing.
>>> assigned_class("O=C(Nc1ccccc1)c1ccc(S(=O)(=O)N2CCOCC2)cc1")
"not fulfilled"
>>> assigned_class("Cc1cc(C)cc(NC(=O)Cn2c(-c3ccccc3Cl)nc3ccccc32)c1")
"fulfilled"

Query: activity change, negative = activation strictly < -80% for this compound? COc1ccc(NC(=O)Nc2ccc3c(c2)C(=O)N([C@H](C)CO)C[C@H](C)[C@@H](CN(C)S(=O)(=O)c2cccs2)O3)cc1
Response: fulfilled

Query: activity change, negative = activation strictly < -80% for this compound? Cc1ccc(SCc2nc3ccccc3n2CC(=O)Nc2ccc(Cl)cc2)cc1
Response: fulfilled

Query: activity change, negative = activation strictly < -80% for this compound? C[C@H]1CN([C@@H](C)CO)C(=O)c2cc(NC(=O)NC3CCCCC3)ccc2O[C@H]1CN(C)C(=O)Nc1ccc(C(F)(F)F)cc1
Response: not fulfilled

Query: activity change, negative = activation strictly < -80% for this compound? C[C@H](CO)N1C[C@H](C)[C@@H](CN(C)S(C)(=O)=O)Oc2ccc(NC(=O)Nc3ccc(C(F)(F)F)cc3)cc2C1=O
Response: fulfilled

Query: activity change, negative = activation strictly < -80% for this compound? O=C(CCN1C(=O)c2ccccc2C1=O)NC(=S)Nc1cccc(Cl)c1
Response: not fulfilled

Query: activity change, negative = activation strictly < -80% for this compound? O=C(Nc1ccc(Cl)cc1)Nc1cc(S(=O)(=O)N2CCOCC2)ccc1N1CCCC1
Response: fulfilled

Query: activity change, negative = activation strictly < -80% for this compound? COc1ccccc1NC(=O)c1cc(S(=O)(=O)N2CCOCC2)ccc1Cl
Response: not fulfilled

====

system: intestinal alkaline phosphatase [Mus musculus]; assay: mouse intestinal phosphatase enzyme activation – biochemical, luminescence, single concentration, confirmation (AID 434970); conditions: purified mouse IAP, CDP-Star luminescence, 30 min, at 10 µM; stronger effect = lower value
The campaign covered roughly 11,000 compounds. About 310 (2.8%) were called active. The entries come from a sample that favours actives as a whole.
Rule for this label: YES means activity change, negative = activation is less than -20%; NO means activity change, negative = activation is at least -20%.

>>> assigned_class("O=C(NCC1CCN(Cc2cccc(Cl)c2)CC1)Nc1ccc(Cl)cc1")
"YES"
>>> assigned_class("N[C@@H](Cc1ccccc1)c1nnc2sc(SCc3ccccc3)nn12")
"NO"

Query: activity change, negative = activation strictly < -20% for this molecule? Cc1ccc(NC(=O)C2CC(=O)NC(N3CCc4ccccc43)=N2)cc1 (stereo unspecified)
Response: NO

Query: activity change, negative = activation strictly < -20% for this molecule? COc1cc(NC(=O)NCC2CCN(Cc3ccccc3F)CC2)cc(OC)c1
Response: YES

Query: activity change, negative = activation strictly < -20% for this molecule? CC(C)c1ccc(NC(=O)C(c2ccccc2)N2CC(=O)Nc3ccccc32)cc1 (stereo unspecified)
Response: YES

Query: activity change, negative = activation strictly < -20% for this molecule? Cc1ccc(NC(=O)C2CC(=O)Nc3nc4ccccc4n32)c(C)c1 (stereo unspecified)
Response: YES

Query: activity change, negative = activation strictly < -20% for this molecule? Cc1cccc(CN2CCC(CNC(=O)Nc3ccc(F)c(Cl)c3)CC2)c1
Response: YES

====

system: intestinal alkaline phosphatase [Mus musculus]; assay: mouse intestinal phosphatase enzyme activation – biochemical, luminescence, single concentration, confirmation (AID 434970); details: purified mouse IAP, CDP-Star luminescence, 30 min, at 10 µM
Screen size: about 11,000 compounds; about 310 (2.8%) were called active. No stated cut-off is given here; in the data, active means activity change below about -85%; inactive means the rest. The sample as a whole holds a higher share of actives than the screen did.
Answer with one of the outcomes given here: y (active), n (inactive)

>>> assigned_class("CCc1ccc(NC(=O)NC2CCCCCCC2)cc1")
"y"

Query: # outcome recorded in this test, key = Cc1ccc(NC(=O)Cn2cnc(C(=O)Nc3ccc(C)c(C)c3)n2)cc1C
Response: n

Query: # outcome recorded in this test, key = S=C(Nc1ccc(Br)cc1)NC1CCCCC1
Response: n

Query: # outcome recorded in this test, key = COC(=O)c1ccc(N2CCN(C)CC2)c(NC(=O)c2cc3ccccc3o2)c1
Response: n

Query: # outcome recorded in this test, key = CCOC(=O)c1ccc(N2CCN(c3ccc(F)cc3)CC2)c(NC(=O)Nc2cccc(OC)c2)c1
Response: n

Query: # outcome recorded in this test, key = CC(=O)Nc1ccc(C(=O)OCC(=O)NC(=O)NC2CCCCC2)cc1
Response: n

Query: # outcome recorded in this test, key = CC[C@]12c3[nH]c4cc(-c5ccco5)ccc4c3CCN1C(=O)[C@@H](CC(=O)NCc1ccco1)C[C@@H]2C(=O)N1CCN(C(=O)C2CC2)CC1
Response: n

Query: # outcome recorded in this test, key = O=C(Nc1ccc(Br)cc1)NC1CCCCCCC1
Response: y

Query: # outcome recorded in this test, key = CCOC(=O)c1cccc(NC(=O)Nc2cc(OC)ccc2OC)c1
Response: n

Query: # outcome recorded in this test, key = O=C(CCCC(=O)N(CC(=O)NC1CCCCC1)Cc1ccccc1)Nc1ccccn1
Response: n

====

test system: intestinal alkaline phosphatase [Mus musculus]; assay: mouse intestinal phosphatase enzyme activation – biochemical, luminescence, single concentration, confirmation (AID 434970); conditions: purified mouse IAP, CDP-Star luminescence, 30 min, at 10 µM; measured here: IAP activation factor, stronger effect = higher value
The whole screen tested about 11,000 compounds, of which about 310 (2.8%) were called active. Only a selection was taken, and actives are over-represented in it overall.
Recorded measurements of activation factor, one per entry
Just the number, please, no unit after it.

>>> measured_result("O=C(COC(=O)c1cccnc1SCC(=O)NCc1ccccc1)NCc1ccccc1")
0.985
>>> measured_result("Cc1cccc(NC(=O)/C(=C\\c2ccco2)NC(=O)c2cccs2)c1")
0.978
>>> measured_result("O=C(NCCc1c[nH]c2ccccc12)Nc1cccc2ccccc12")
1.29

Query: // activation factor lookup, key: Cc1cccc(NC(=S)NC2CC3CCCC(C2)N3Cc2cccs2)c1C (centres undefined)
Response: 1.15

Query: // activation factor lookup, key: CCCCN1CC[C@@H]2C=CC[C@H](C(=O)OC)[C@@H]2C1=O
Response: 0.952

Query: // activation factor lookup, key: CCc1cccc(CC)c1NC(=O)CSc1nc2ccc(N3C(=O)C4C5C=CC(C5)C4C3=O)cc2s1 (centres undefined)
Response: 0.959

Query: // activation factor lookup, key: COc1ccc(C(=O)Nc2cccc(C(C)=O)c2)c(OC)c1OC
Response: 0.951

Query: // activation factor lookup, key: Cc1nn(Cc2ccc(Cl)c(Cl)c2)c(C)c1NC(=O)c1cn(-c2ccccc2)nc1-c1ccccc1
Response: 2.62

Query: // activation factor lookup, key: CCCCC1=CC2=C(c3ccco3)C(=O)C(C)(OC(=O)c3ccc(OC)cc3)C(=O)C2=CN1Cc1ccc2c(c1)OCO2 (centres undefined)
Response: 0.503

Query: // activation factor lookup, key: CCCc1c(O)nc(SC2CC(=O)N(c3cc(OC)ccc3OC)C2=O)[nH]c1=O (centres undefined)
Response: 1.01

====

system: intestinal alkaline phosphatase [Mus musculus]; assay: mouse intestinal phosphatase enzyme activation – biochemical, luminescence, single concentration, confirmation (AID 434970); conditions: purified mouse IAP, CDP-Star luminescence, 30 min, at 10 µM; stronger effect = lower value
The campaign covered roughly 11,000 compounds. About 310 (2.8%) were called active. The sample holds actives, similar compounds and a random draw of the others, so the mix is not that of the screen.
Rule for this label: satisfied means activity change, negative = activation is less than -10%; not satisfied means activity change, negative = activation is at least -10%.

>>> assigned_class("Cc1cc(C)cc(C(=O)N(NC(=O)Nc2ccc(Cl)cc2)C(C)(C)C)c1")
"satisfied"
>>> assigned_class("O=C(CCCNS(=O)(=O)c1cccs1)N1CCN(c2ccc(F)cc2)CC1")
"not satisfied"
>>> assigned_class("O=C(COc1c(F)c(F)cc(F)c1F)NC(=O)NC1CCCC1")
"not satisfied"

Query: activity change, negative = activation strictly < -10% for this compound? O=C(c1cccs1)N1CCCC(c2ccccc2)C1 (configuration not stated)
Response: not satisfied

Query: activity change, negative = activation strictly < -10% for this compound? COc1cc(OC)c(C2N(c3ccccn3)C(=O)C3CCCN32)cc1OC (configuration not stated)
Response: satisfied

Query: activity change, negative = activation strictly < -10% for this compound? C#CCOCCOCCOCCNc1nc(N2CCN(C(=O)CCCCCCCCCCNC(=O)[C@H](CO)n3cc(CCCSC)nn3)CC2)nc(N2CCN(C(=O)CCCCCCCCCCNC(=O)[C@H](CCCN=C(N)N)n3cc(C[C@@H](C)CC)nn3)CC2)n1
Response: satisfied

Query: activity change, negative = activation strictly < -10% for this compound? COc1ccc(C)cc1NC(=O)C1C2C=CC(C2)C1C(=O)O (configuration not stated)
Response: not satisfied

Query: activity change, negative = activation strictly < -10% for this compound? COC(=O)c1cccc(NC(=O)Nc2ccc(Cl)c(Cl)c2)c1
Response: satisfied

Query: activity change, negative = activation strictly < -10% for this compound? CCCCCOc1ccc(C(=O)CCC(=O)NNC(=O)c2ccncc2)cc1
Response: satisfied

Query: activity change, negative = activation strictly < -10% for this compound? O=C(Nc1ccc(Cl)cc1F)c1cc(S(=O)(=O)N2CCCCC2)ccc1F
Response: satisfied
